# System: Tobacco Budworm
# assay_summary: Mite/Insect Screen, tobacco budworm (TBW)
# Format: in vivo
# test_settings: Heliothis virescens, 144 h; 400 ppm, 6 day

[
  {
    "compound": "CCC1CCCC(OC2CCC(N(C)C)C(C)O2)C(C)C(=O)C2=CC3C(C=CC4CC(OC5OC(C)C(O)C(O)C5OC)CC43)C2CC(=O)O1 (stereo not drawn) [A83543P]",
    "inhibition at 400 ppm": "100%"
  },
  {
    "compound": "CCC1CCCC(OC2CCC(N(C)C)C(C)O2)C(C)C(=O)C2=CC3C(C=C(C)C4CC(OC5OC(C)C(O)C(OC)C5OC)CC43)C2CC(=O)O1 (stereo not drawn) [A83543O]",
    "inhibition at 400 ppm": "100%"
  },
  {
    "compound": "CCC1CCCC(OC2CCC(NC)C(C)O2)C(C)C(=O)C2=CC3C(C=CC4CC(OC5OC(C)C(O)C(OC)C5OC)CC43)C2CC(=O)O1 (stereo not drawn) [N-demethyl-K, N-demethyl-A83543K]",
    "inhibition at 400 ppm": "100%"
  }
]
